Data provenance is paper PMC11544713.

assay_explanation: Acute intervention: nutrikinetics of plasma metabolites after ingestion of L. citriodora extract (untargeted HPLC-ESI-QTOF-MS)
experimental_setup: 1 h after L. citriodora extract
Protocol: A total of 25 healthy individuals participated, with an average age of 27 ± 9 years and a mean body mass index (BMI) of 23 ± 3 kg/m^2. […] Metabolite nutrikinetics were studied using PKSolver, an add-in program for pharmacokinetic data analysis in Microsoft Excel. The time to reach the maximum concentration (observed Tmax) was calculated for each significant metabolite. As an untargeted metabolomic approach was used to detect the circulating metabolites, these were not quantified. […]
Counter-ions that a name gives are not always drawn.
value_type: mean chromatographic area in plasma, T1

compound="COc1cc(CCO)ccc1OS(=O)(=O)O [homovanillyl alcohol sulfate]" value_type="mean chromatographic area in plasma, T1" numeric_result=0
compound="COc1cc(CCCO)ccc1OC1OC(CO)C(O)C(O)C1O (single isomer, unassigned; isomer 1) [dihydroconiferin isomer 1, dihydroconiferin]" value_type="mean chromatographic area in plasma, T1" numeric_result=137
compound="CC1=CC(=O)CC(C)(C)C1(O)/C=C/C(C)=C/COC1OC(CO)C(O)C(O)C1O (single isomer, unassigned; isomer 2) [abscisic alcohol 11-glucoside isomer 2, abscisic alcohol 11-glucoside]" value_type="mean chromatographic area in plasma, T1" numeric_result=519
compound="COc1cc(/C=C/C(=O)O)ccc1O[C@@H]1O[C@H](C(=O)O)[C@@H](O)[C@H](O)[C@H]1O [ferulic acid 4-O-glucuronide]" value_type="mean chromatographic area in plasma, T1" numeric_result=0
compound="COc1cc(C(=O)O)ccc1OS(=O)(=O)O [vanillic acid 4-O-sulfate isomer 1, vanillic acid 4-O-sulfate]" value_type="mean chromatographic area in plasma, T1" numeric_result=0
compound="CC1=CC(=O)CC(C)(C)C1(O)/C=C/C(C)=C/COC1OC(CO)C(O)C(O)C1O (single isomer, unassigned; isomer 1) [abscisic alcohol 11-glucoside isomer 1, abscisic alcohol 11-glucoside]" value_type="mean chromatographic area in plasma, T1" numeric_result=188
compound="C=C(C)[C@@H]1[C@H]2OC(=O)[C@@H]1[C@]1(O)C[C@H]3O[C@]34C(=O)O[C@H]2[C@]14C [picrotoxinin]" value_type="mean chromatographic area in plasma, T1" numeric_result=102
